Test system: S. pneumoniae
MEASUREMENT PROTOCOL: Biological activity against bacterial strains: S. pneumoniae
Assay type: cell-based, Streptococcus pneumoniae
Set-up: unit not given here
CONDITION SET: strain ATCC49619
Reported Biological Activity, S. pneumoniae ATCC49619 by item:
Answer field: number only, no words.

For the compound shown here, CCC1OC(=O)CC(O)C(C)C(OC2OC(C)C(O)C(N(C)C)C2O)C(CC=O)CC(C)C(=NOCC=Cc2ccc3nccnc3c2)C=CC(C)=CC1CO (stereo not drawn) , give the reported Biological Activity, S. pneumoniae ATCC49619.
0.025

May I ask what Biological Activity, S. pneumoniae ATCC49619 has been recorded for CO[C@@H]1[C@@H](OC2OC(C)C(O)C(N(C)C)C2O)[C@@H](CC=O)C[C@@H](C)C(=N/OCCCOc2ccc3ncccc3c2)/C=C/C=C/C[C@@H](C)OC(=O)C[C@H]1O (stereo partly drawn) ?
0.025

Please report the recorded Biological Activity, S. pneumoniae ATCC49619 for CCC1OC(=O)CC(O)C(C)C(OC2OC(C)C(O)C(N(C)C)C2O)C(CC=O)CC(C)C(=NOCCCCOc2ccc3ncccc3c2)C=CC(C)=CC1COC(=O)NCc1ccccc1 (stereo not drawn) .
0.098
